Every entry's value here was drawn from PubChem BioAssay.

- method_summary: S. cerevisiae RM11-1a growth modifiers, primary screen, strain RM11-1a, OD600, basal, 24 h (AID 1177);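 note: cultures grown under basal conditions with no added stressor; test concentration not given here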
- assay_context: OD600, 24 h, higher = more signal, called active from +8 up or from −8 down

>  <compound>
CC(C)OC(=O)CC(=O)CC(O)c1ccc(C#N)cc1 (configuration not stated)

>  <z-score>
-0.608

$$$$
>  <compound>
CCCN1C(=O)[C@]2(COC(c3ccc(OCCCO)cc3)=N2)Cc2ccccc21

>  <z-score>
0.235

$$$$
>  <compound>
CC(C)(C)OC(=O)CC[C@]1(C(=O)N2CCCCC2)N=C(c2ccc(OCCCO)cc2)O[C@H]1c1ccccc1N=[N+]=[N-]

>  <z-score>
1.01

$$$$
>  <compound>
CS(=O)(=O)CCOC(=O)C1=CC(CCCO)=CC(c2cccs2)N(Cc2cc3c(cc2Br)OCO3)C=C1C(=O)OCCS(C)(=O)=O (configuration not stated)

>  <z-score>
0.379

$$$$
>  <compound>
CCOC(=O)C[C@H]1[C@H](OC(=O)c2ccccc2-c2ccccc2)[C@@H](NC(=O)Cc2ccc(OC)cc2)c2cc(OCCCO)ccc2N1C(=O)c1ccccc1

>  <z-score>
0.799

$$$$
>  <compound>
COC(=O)[C@@]1(Cc2ccc(OC)cc2)[C@H]2c3cc(C(=O)N4CCCC4)n(Cc4cc(F)cc5c4OCOC5)c3C[C@H]2CN1C(=O)c1ccccc1

>  <z-score>
-0.334

$$$$
>  <compound>
COc1ccc(C(=O)Nc2cccc(CN3C(=O)[C@@]4(O[C@@H](CCn5cc(CCO)nn5)[C@H]([Si](C)(C)c5ccc(OC)cc5)[C@H]4C)c4ccccc43)c2)cc1

>  <z-score>
3.1

$$$$

###

- method_summary: CREB reporter modulators under forskolin, primary screen, cell-based, PC12, CRE-LacZ reporter, forskolin-stimulated (AID 1146);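 note: PC12 cells with 6xCRE LacZ reporter stimulated by forskolin 10 µM; beta-galactosidase reporter signal reflecting CREB driven transcription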
- assay_context: luminescence, 4.5 h, higher = more signal, called active from +8 up or from −8 down
Calls of active or inactive are those of the source.
measure: z-score

>  <compound>
O=C1C2C=CC(C(O)c3cccs3)N(Nc3ccccc3F)C2C(=O)N1c1ccccc1 (stereo unspecified)

>  <measure>
z-score

>  <result>
-0.198 (inactive)

$$$$
>  <compound>
O=c1cccc(C=Cc2ccccc2)o1

>  <measure>
z-score

>  <result>
0.801 (inactive)

$$$$
>  <compound>
C=CC(COC(C)=O)NS(=O)(=O)c1ccc(Br)cc1 (stereo unspecified)

>  <measure>
z-score

>  <result>
1.33 (inactive)

$$$$
>  <compound>
CC(C)C(O)C1C=CC2C(=O)N(c3ccccc3)C(=O)C2N1Nc1ccc(C#N)cc1 (stereo unspecified)

>  <measure>
z-score

>  <result>
0.813 (inactive)

$$$$
>  <compound>
CC(=O)NCCCC[C@@H]1NC(=O)[C@H]2C[C@@H](C(=O)NCCCCCC[N+](C)(C)C)[C@@H](c3cccc(OCCO)c3)N2C1=O

>  <measure>
z-score

>  <result>
-0.812 (inactive)

$$$$
>  <compound>
O=c1oc(-c2ccccc2)nc2cc(Br)ccc12

>  <measure>
z-score

>  <result>
0.827 (inactive)

$$$$
>  <compound>
C=CCNC(=O)[C@H]1[C@@H]2C(=O)O[C@@H](c3ccccc3)[C@@H](c3ccccc3)N2[C@@H](c2ccc(O)cc2)[C@]12C(=O)N(C(=O)OCCOC)c1ccc(C#CCCO)cc12

>  <measure>
z-score

>  <result>
0.567 (inactive)

$$$$
>  <compound>
O=C1O[C@@H](c2ccccc2)[C@@H](c2ccccc2)N2[C@@H](c3ccc(OCCO)cc3)[C@]3(C(=O)Nc4ccccc43)[C@@H](C(=O)Nc3nc4ccccc4s3)[C@H]12

>  <measure>
z-score

>  <result>
-0.278 (inactive)

$$$$
>  <compound>
CCCN1C(=O)[C@]2(COC(c3ccc(OCCCO)cc3)=N2)Cc2ccccc21

>  <measure>
z-score

>  <result>
-1.39 (inactive)

$$$$
>  <compound>
CCOC(=O)C1=C[C@@H](C(C)C)N(S(=O)(=O)c2ccc(C)cc2)[C@H]1c1ccc(C(C)C)cc1

>  <measure>
z-score

>  <result>
0.359 (inactive)

$$$$
>  <compound>
O=C1O[C@@H](c2ccccc2)[C@@H](c2ccccc2)N2[C@@H](c3ccc(OCCO)cc3)[C@]3(C(=O)Nc4ccc(C#CC5=CCCCC5)cc43)[C@@H](C(=O)O)[C@H]12

>  <measure>
z-score

>  <result>
7.68 (inactive)

$$$$
>  <compound>
COc1ccc(C(O)C2C=CC3C(=O)NC(=O)C3N2Nc2ccccn2)cc1OCc1ccccc1 (stereo unspecified)

>  <measure>
z-score

>  <result>
0.124 (inactive)

$$$$
>  <compound>
COc1ccc(C(=O)Nc2cccc(CN3C(=O)[C@@]4(O[C@@H](CCn5cc(CCO)nn5)[C@H]([Si](C)(C)c5ccc(OC)cc5)[C@H]4C)c4ccccc43)c2)cc1

>  <measure>
z-score

>  <result>
-1.29 (inactive)

$$$$
>  <compound>
CCOC(=O)C1=CCC(C(C)(C)C)N(S(=O)(=O)c2ccc(C)cc2)C1 (stereo unspecified)

>  <measure>
z-score

>  <result>
0.639 (inactive)

$$$$
>  <compound>
COCCOC(=O)N1C(=O)[C@@]2(c3cc(C#CCNC(N)=O)ccc31)[C@H](c1ccc(O)cc1)N1[C@H](c3ccccc3)[C@H](c3ccccc3)OC(=O)[C@H]1[C@@H]2C(=O)Nc1nc2ccccc2s1

>  <measure>
z-score

>  <result>
-1.5 (inactive)

$$$$
>  <compound>
Cc1ccc(S[C@]2(C(=O)NCc3ccccc3)CC(=O)N(Cc3ccccc3Cl)[C@@H]2c2ccc(CO)cc2I)cc1

>  <measure>
z-score

>  <result>
1.72 (inactive)

$$$$

###

- method_summary: inhibitors of hydroxyurea-induced Chk1 phosphorylation, primary screen, imaging, HeLa, phospho-Chk1 nuclear intensity (AID 1187); note: test concentration not given here
- assay_context: hydroxyurea-induced phospho-Chk1 immunofluorescence imaging, higher = more signal
Active and inactive are the calls of the source. No rule for the calls is given here.
z-score overview
measure: z-score

>  <compound>
COC(=O)c1ccc(C(O)C2C=CC3C(=O)N(c4ccccc4)C(=O)C3N2Nc2ccc(C#N)cc2)o1 (stereo not drawn)

>  <measure>
z-score

>  <result>
-0.852 (inactive)

$$$$
>  <compound>
O=C1O[C@H](c2ccccc2)[C@H](c2ccccc2)N2[C@H]1[C@@H](C(=O)N1CCN(c3ncccn3)CC1)[C@]1(C(=O)Nc3ccccc31)[C@H]2c1ccc(OCCO)cc1

>  <measure>
z-score

>  <result>
-1.1 (inactive)

$$$$
>  <compound>
COC(=O)C[C@H]1O[C@]2(C(=O)N(Cc3ccccc3)c3ccc(NC(C)=O)cc32)[C@@H](C)[C@@H]1[Si](C)(C)c1ccc(OC)cc1

>  <measure>
z-score

>  <result>
0.536 (inactive)

$$$$
>  <compound>
CC1=C2[C@@H](CCc3ccccc3)OB(O)C[C@@H]2n2c(=O)n(-c3ccccc3)c(=O)n2C1

>  <measure>
z-score

>  <result>
0.208 (inactive)

$$$$
>  <compound>
N#Cc1ccc(NN2C(C(O)C3CCCCC3)C=CC3C(=O)N(c4ccccc4)C(=O)C32)cc1 (stereo not drawn)

>  <measure>
z-score

>  <result>
-0.0947 (inactive)

$$$$
>  <compound>
COC(=O)c1c(CC[C@@H](CO)NC(=O)N[C@@H](Cc2ccccc2)Cn2cc(C3(O)CCCCC3)nn2)oc(C(C)=O)c1C(=O)OC

>  <measure>
z-score

>  <result>
-0.145 (inactive)

$$$$
>  <compound>
O=C1N(CCS(=O)(=O)c2ccccc2)Cc2ccccc2C[C@]12N=C(c1ccc(OCCCO)cc1)O[C@@H]2c1ccccc1

>  <measure>
z-score

>  <result>
-0.709 (inactive)

$$$$
>  <compound>
O=C1O[C@H](c2ccccc2)[C@H](c2ccccc2)N2[C@H]1[C@@H](C(=O)O)[C@]1(C(=O)Nc3ccc(C#CC4(O)CCCCCC4)cc31)[C@H]2c1ccc(OCCO)cc1

>  <measure>
z-score

>  <result>
-0.198 (inactive)

$$$$
>  <compound>
COC(=O)c1ccc(C23CC2(C(NP(=O)(c2ccccc2)c2ccccc2)c2ccccc2)C3)cc1 (stereo not drawn)

>  <measure>
z-score

>  <result>
-1.34 (inactive)

$$$$
>  <compound>
Cc1ccc(S[C@]2(C(=O)NCc3ccccc3)CC(=O)N(Cc3ccccc3Cl)[C@@H]2c2ccc(CO)cc2I)cc1

>  <measure>
z-score

>  <result>
0.0687 (inactive)

$$$$
>  <compound>
CCOC(=O)C[C@H]1[C@H](OC(=O)c2ccc(C(=O)c3ccccc3)cc2)[C@@H](NC(=O)C2CCCCC2)c2cc(OCCCO)ccc2N1C(=O)c1ccccc1

>  <measure>
z-score

>  <result>
0.0465 (inactive)

$$$$
>  <compound>
NC(=O)NCC#Cc1ccc2c(c1)[C@]1(C(=O)N2)[C@H](C(=O)NC[C@H](O)c2ccccc2)[C@H]2C(=O)O[C@H](c3ccccc3)[C@H](c3ccccc3)N2[C@@H]1c1ccc(O)cc1

>  <measure>
z-score

>  <result>
-0.468 (inactive)

$$$$
>  <compound>
O=C1O[C@@H](c2ccccc2)[C@@H](c2ccccc2)N2[C@@H](c3ccc(O)cc3)[C@]3(C(=O)Nc4ccc(C#CC5(O)CCCCCC5)cc43)[C@@H](C(=O)N3CCCCCCC3)[C@H]12

>  <measure>
z-score

>  <result>
-0.0414 (inactive)

$$$$
